# target: xlσ1R E169A (Xenopus laevis, UniProt Q6DCU6, E169A)
# Construct: hemagglutinin signal peptide (N); made in house; host or cells: Pichia pastoris GS115
# Sequence (Q6DCU6 whole entry E169A): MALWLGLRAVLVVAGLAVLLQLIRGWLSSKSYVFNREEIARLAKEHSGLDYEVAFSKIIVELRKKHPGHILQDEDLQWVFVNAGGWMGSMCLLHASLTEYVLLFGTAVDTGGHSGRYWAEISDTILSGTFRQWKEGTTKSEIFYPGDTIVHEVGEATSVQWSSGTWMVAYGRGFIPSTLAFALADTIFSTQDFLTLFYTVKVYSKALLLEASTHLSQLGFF
# experiment-summary: Microscale thermophoresis (MST) binding to xlσ1R E169A mutant
# particulars: Source Data sheet Supplementary Table 3, E169A, repeat 3; read-out: Kd Repeat 3
readout-type: Kd

[[record]]
smiles_entry = "CC(=O)[C@H]1CC[C@H]2[C@@H]3CCC4=CC(=O)CC[C@]4(C)[C@H]3CC[C@]12C"
readout_type = "Kd"
measured = "0.85 µM"


----------
# target: xlσ1R E169A (Xenopus laevis, UniProt Q6DCU6, E169A)
# Construct: hemagglutinin signal peptide (N); made in house; host or cells: Pichia pastoris GS115
# experiment-summary: Microscale thermophoresis (MST) binding to xlσ1R E169A mutant
# particulars: Source Data sheet Supplementary Table 3, E169A, mean of 3; read-out: Kd Mean
readout-type: Kd (nM)

[[record]]
compound = "CC(=O)[C@H]1CC[C@H]2[C@@H]3CCC4=CC(=O)CC[C@]4(C)[C@H]3CC[C@]12C [progesterone]"
measured = 990


----------
# target: xlσ1R E169A (Xenopus laevis, UniProt Q6DCU6, E169A)
# Construct: hemagglutinin signal peptide (N); made in house; host or cells: Pichia pastoris GS115
# experiment-summary: Microscale thermophoresis (MST) binding to xlσ1R E169A mutant
# particulars: MST, xlσ1R E169A, N = 3, mean (± SD); read-out: Kd (mean)
readout-type: Kd (nM)

[[record]]
smiles_entry = "CC(=O)[C@H]1CC[C@H]2[C@@H]3CCC4=CC(=O)CC[C@]4(C)[C@H]3CC[C@]12C"
measured = 980

